- Assay Target: hIP (Homo sapiens, UniProt P43119)
- Construct: expressed in transfected cells
- Protocol Summary: FLIPR calcium signal, IP
- Type: cell-based
- Details: HEK-293(EBNA), read-out: Ca2+ Signal-EC50 (nM) IP
Doc: threshold 3000 nM (exclusive). Items with EC50 beneath it return Met; others return Not met.

Ask: Is EC50 of CCCCCC(O)c1cccc([C@@H]2[C@@H](C/C=C\CCCC(=O)O)[C@H](Cl)C[C@H]2O)c1 (stereo partly drawn) strictly below 3000 nM?
Reply: Not met

Ask: Now the compound CCCCC(O)c1cccc([C@@H]2[C@@H](C/C=C\CCCC(=O)O)[C@H](Cl)C[C@H]2O)c1 (stereo partly drawn)
Reply: Met

Ask: Now the compound CCCCCC(O)c1ccc([C@@H]2[C@@H](C/C=C\CCCC(=O)O)[C@H](F)C[C@H]2O)cc1 (mixture of isomers)
Reply: Not met

Ask: Now the compound O=C(O)CCC/C=C\C[C@@H]1[C@@H](c2ccc(C(O)c3ccccc3)cc2)[C@H](O)C[C@H]1Cl (stereo partly drawn)
Reply: Met

Ask: Now the compound CCCCCC(O)c1ccc([C@@H]2[C@@H](C/C=C\CCCC(=O)O)[C@H](Cl)C[C@@H]2O)cc1 (stereo partly drawn)
Reply: Not met

Ask: Now the compound CCCCCC(O)c1ccc([C@@H]2[C@@H](C/C=C\CCCC(=O)O)[C@@H](Cl)C[C@H]2O)cc1 (stereo partly drawn)
Reply: Not met

###

- Assay Target: EP4 receptors (Homo sapiens, UniProt P35408)
- Construct: expressed in transfected cells; membrane pellet
- Sequence (P35408 whole entry): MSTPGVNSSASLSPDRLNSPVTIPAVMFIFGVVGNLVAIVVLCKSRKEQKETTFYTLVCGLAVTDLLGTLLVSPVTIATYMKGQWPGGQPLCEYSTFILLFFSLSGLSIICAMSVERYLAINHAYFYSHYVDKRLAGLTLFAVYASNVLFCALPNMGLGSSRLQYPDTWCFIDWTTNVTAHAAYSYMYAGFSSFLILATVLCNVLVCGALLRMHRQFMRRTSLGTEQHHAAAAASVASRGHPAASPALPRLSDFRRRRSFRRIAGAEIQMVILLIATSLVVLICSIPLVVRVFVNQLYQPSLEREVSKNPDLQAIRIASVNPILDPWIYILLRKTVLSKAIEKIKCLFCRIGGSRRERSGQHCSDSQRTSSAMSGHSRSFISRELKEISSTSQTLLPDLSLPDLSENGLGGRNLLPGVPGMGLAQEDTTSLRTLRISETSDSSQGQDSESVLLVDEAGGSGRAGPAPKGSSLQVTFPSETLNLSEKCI
- Protocol Summary: Radioligand binding, [3H]PGE2, EP4 (Ki)
- Details: HEK-293 cells stably expressing EP4, [3H]PGE2
Exercise: state measured Ki for each of the molecules provided.
Answer format: numeric, nM implied, no suffix.

Ask: Using the record for CCCCCC(O)c1ccc([C@@H]2[C@@H](Cc3cccc(CCC(=O)O)c3)[C@H](Cl)C[C@H]2O)cc1 (stereo partly shown) , report its Ki.
Reply: 3950

Ask: Now the molecule CCCCCC(O)c1ccc([C@@H]2[C@@H](C/C=C\CCCC(=O)O)[C@@H](Cl)C[C@H]2O)cc1 (stereo partly shown)
Reply: 4590

Ask: Now the molecule CC(C)(C)CCCC(O)c1ccc([C@@H]2[C@@H](CCCCCCC(=O)O)[C@H](Cl)C[C@H]2O)cc1 (mixture of isomers)
Reply: 3800

Ask: Now the molecule CCCCCC(O)c1ccc([C@@H]2[C@@H](CCCc3ccc(C(=O)O)s3)[C@H](Cl)C[C@H]2O)cc1 (stereo partly shown)
Reply: 3020

Ask: Now the molecule CCCCCC(O)C(C)(C)c1ccc([C@@H]2[C@@H](C/C=C\CCCC(=O)O)[C@H](Cl)C[C@H]2O)cc1 (stereo partly shown)
Reply: 5410

###

Exercise: state measured EC50 for each of the molecules provided.
- Assay Target: hEP2/Gqs5 (Homo sapiens, UniProt P43116)
- Construct: expressed in transfected cells
- Sequence (P43116 whole entry): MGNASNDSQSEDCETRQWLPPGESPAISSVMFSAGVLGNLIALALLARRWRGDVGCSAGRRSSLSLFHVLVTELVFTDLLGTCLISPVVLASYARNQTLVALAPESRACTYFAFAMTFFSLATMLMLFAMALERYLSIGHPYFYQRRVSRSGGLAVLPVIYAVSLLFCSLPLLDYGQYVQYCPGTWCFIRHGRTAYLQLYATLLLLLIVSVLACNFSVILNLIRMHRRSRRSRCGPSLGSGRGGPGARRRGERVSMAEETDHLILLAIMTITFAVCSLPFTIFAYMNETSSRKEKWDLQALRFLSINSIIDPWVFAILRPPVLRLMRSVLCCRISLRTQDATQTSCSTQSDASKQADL
- Protocol Summary: FLIPR calcium signal, EP2
- Assay type: cell-based
- Details: HEK-293(EBNA), value outside parentheses, read-out: Ca2+ Signal-EC50 (nM) EP2
Answer format: numeric, nM implied, no suffix.

Ask: Using the record for CCCCCCC(O)c1ccc([C@@H]2[C@@H](C/C=C\CCCC(=O)O)[C@H](Cl)C[C@H]2O)cc1 (stereo partly shown) [Entry 25] , report its EC50.
Reply: 58

Ask: Now the molecule CCCCCC(O)c1ccc([C@@H]2[C@@H](C/C=C\CCCC(=O)O)[C@@H](Cl)C[C@H]2O)cc1 (stereo partly shown) [Entry 9]
Reply: 242

Ask: Now the molecule CCCCCC(O)c1ccc([C@@H]2[C@@H](C/C=C\CCCC(=O)O)[C@H](Cl)C[C@H]2O)cc1 (mixture of isomers) [Entry 11]
Reply: 7

Ask: Now the molecule O=C(O)CCCCCC[C@@H]1[C@@H](c2ccc(C(O)CCc3ccccc3)cc2)[C@H](O)C[C@H]1Cl (stereo partly shown) [Entry 24]
Reply: 735

###

Exercise: state measured EC50 for each of the molecules provided.
- Assay Target: hEP2/Gqs5 (Homo sapiens, UniProt P43116)
- Construct: expressed in transfected cells
- Protocol Summary: FLIPR calcium signal, EP2
- Format: cell-based
- Details: HEK-293(EBNA), value outside parentheses, read-out: Ca2+ Signal-EC50 (nM) EP2
Answer format: numeric, nM implied, no suffix.

Ask: Using the record for CC(C)(C)CCCC(O)c1ccc([C@@H]2[C@@H](CCCCCCC(=O)O)[C@H](Cl)C[C@H]2O)cc1 (mixture of isomers) [Entry 20] , report its EC50.
Reply: 5390

Ask: Now the molecule CCCCCC(O)c1ccc([C@@H]2[C@@H](CCCc3cccc(C(=O)O)c3)[C@H](Cl)C[C@H]2O)cc1 (stereo partly shown) [Entry 1]
Reply: 2450

Ask: Now the molecule CCCCCC(O)C(C)(C)c1ccc([C@@H]2[C@@H](C/C=C\CCCC(=O)O)[C@H](Cl)C[C@H]2O)cc1 (stereo partly shown) [Entry 31]
Reply: 544

Ask: Now the molecule CCCCCC(O)c1ccc([C@@H]2[C@@H](Cc3cccc(CCC(=O)O)c3)[C@H](Cl)C[C@H]2O)cc1 (stereo partly shown) [Entry 3]
Reply: 158

###

- Assay Target: EP2 (Homo sapiens)
- Sequence (P43116 whole entry): as above
- Protocol Summary: cAMP assay, HEK-EBNA cells expressing EP2
- Format: cell-based
- Design: expressed in transfected cells; host or cells: HEK-EBNA
- Details: value in parentheses in EP2 column, read-out: EP2 EC50 (nM), measurement of cAMP (data in parentheses)
Exercise: state measured log10 of EC50 for each of the molecules provided.
Scale: decimal log of EC50, EC50 in nM.

Ask: Using the record for CCCCCC(O)c1ccc([C@@H]2[C@@H](CCCc3ccc(C(=O)O)s3)[C@H](Cl)C[C@H]2O)cc1 (some centres unmarked) , report its log10 of EC50.
Reply: 0.30

Ask: Now the molecule CCCC1(C(O)c2cccc([C@@H]3[C@@H](Cc4cccc(CCC(=O)O)c4)[C@H](Cl)C[C@H]3O)c2)CCC1 (some centres unmarked)
Reply: 1.84

Ask: Now the molecule CCCCCCc1ccc([C@@H]2[C@@H](C/C=C\CCCC(=O)O)[C@H](Cl)C[C@H]2O)cc1
Reply: 1.43

Ask: Now the molecule O=C(O)CCCCCC[C@@H]1[C@@H](c2ccc(C(O)CCC3CCCCC3)cc2)[C@H](O)C[C@H]1Cl (some centres unmarked)
Reply: 3.72

Ask: Now the molecule CCCCCCC(O)c1ccc([C@@H]2[C@@H](C/C=C\CCCC(=O)O)[C@H](Cl)C[C@H]2O)cc1 (some centres unmarked)
Reply: 1.08

Ask: Now the molecule O=C(O)CCC/C=C\C[C@@H]1[C@@H](c2ccc(C(O)Cc3ccccc3)cc2)[C@H](O)C[C@H]1Cl (mixture of isomers)
Reply: 1.15

Ask: Now the molecule CCCCCC(O)c1ccc([C@@H]2[C@@H](C/C=C\CCCC(=O)O)[C@H](Cl)C[C@H]2O)cc1 (single isomer, unassigned) [Entry 12]
Reply: 1.58

Ask: Now the molecule CCCCCC(O)c1ccc([C@@H]2[C@@H](Cc3cccc(CCC(=O)O)c3)[C@H](Cl)C[C@H]2O)cc1 (some centres unmarked)
Reply: 1.75

Ask: Now the molecule CCCCCC(O)c1ccc([C@@H]2[C@@H](C/C=C\CCCC(=O)O)[C@H](Cl)C[C@H]2O)cc1 (mixture of isomers) [Entry 11]
Reply: 0.48

Ask: Now the molecule O=C(O)CCC/C=C\C[C@@H]1[C@@H](c2ccc(C(O)CC3CCCCC3)cc2)[C@H](O)C[C@H]1Cl (mixture of isomers)
Reply: 2.69

Ask: Now the molecule CCCCCC(O)c1ccc([C@@H]2[C@@H](C/C=C\CCCC(=O)O)[C@@H](Cl)C[C@H]2O)cc1 (some centres unmarked)
Reply: 2.51

Ask: Now the molecule O=C(O)CCCCCC[C@@H]1[C@@H](c2ccc(C(O)CCc3ccccc3)cc2)[C@H](O)C[C@H]1Cl (some centres unmarked)
Reply: 2.80

Ask: Now the molecule CCCCCC(O)c1cccc([C@@H]2[C@@H](C/C=C\CCCC(=O)O)[C@H](Cl)C[C@H]2O)c1 (some centres unmarked)
Reply: 1.58

Ask: Now the molecule CCCCCC(O)C(C)(C)c1ccc([C@@H]2[C@@H](C/C=C\CCCC(=O)O)[C@H](Cl)C[C@H]2O)cc1 (some centres unmarked)
Reply: 1.28

Ask: Now the molecule CCCCCC(O)c1ccc([C@@H]2[C@@H](CCCCCCC(=O)O)[C@H](Cl)C[C@H]2O)cc1 (some centres unmarked)
Reply: 1.88

Ask: Now the molecule CCCCC(O)c1ccc([C@@H]2[C@@H](C/C=C\CCCC(=O)O)[C@H](Cl)C[C@H]2O)cc1 (mixture of isomers)
Reply: 1.00

Ask: Now the molecule CCCCC(O)c1cccc([C@@H]2[C@@H](C/C=C\CCCC(=O)O)[C@H](Cl)C[C@H]2O)c1 (some centres unmarked)
Reply: 1.00

Ask: Now the molecule CC(C)(C)CCCC(O)c1ccc([C@@H]2[C@@H](C/C=C\CCCC(=O)O)[C@H](Cl)C[C@H]2O)cc1 (some centres unmarked)
Reply: 2.91

Ask: Now the molecule O=C(O)CCC/C=C\C[C@@H]1[C@@H](c2ccc(C(O)c3ccccc3)cc2)[C@H](O)C[C@H]1Cl (some centres unmarked)
Reply: 0.95

Ask: Now the molecule CCCCCC(O)c1ccc([C@@H]2[C@@H](C/C=C\CCCC(=O)O)[C@H](Cl)C[C@@H]2O)cc1 (some centres unmarked)
Reply: 0.70

Ask: Now the molecule O=C(O)CCCCCC[C@@H]1[C@@H](c2ccc(C(O)CC3CCCCC3)cc2)[C@H](O)C[C@H]1Cl (some centres unmarked)
Reply: 3.42

Ask: Now the molecule CCCCCC(O)c1ccc([C@@H]2[C@@H](C/C=C\CCCC(=O)O)[C@H](Cl)C[C@H]2O)cc1 (single isomer, unassigned) [Entry 13]
Reply: 0.48
